molecular target: RORγ ligand-binding domain (Homo sapiens); construct: Gal4 (galactose-responsive transcription factor); expressed in transfected cells; host or cells: HEK293, transient co-transfection; test: RORγ Reporter Assay (Gal4); assay type: cell-based; settings: HEK293 cells, luciferase reporter, 24 h incubation, absolute IC50; read-out: IC50
pIC50: −log10 of the molar value.
MEASUREMENT TYPE: pIC50

A selection of reference data follows.
CN(Cc1ccc(C(F)(F)F)cc1)c1ncnc2c1c(F)cn2CC1(O)CCN(CC(N)=O)CC1 | 7.06
NC(=O)CN1CC[C@@H](Cn2ccc3c(N(Cc4ccc(C(F)(F)F)cn4)C4CC4)ncnc32)[C@H](F)C1 (single isomer, unassigned) [Example K8-3-1] | 7.12
NC(=O)CN1CCC(O)(Cn2cnc3c(N(Cc4ccc(C(F)(F)F)cc4)C4CC4)ncnc32)CC1 | 7.14
CCN(Cc1ccc(-n2cccn2)cc1F)c1ncnc2c1ccn2C[C@@]1(O)CCN(CC(N)=O)C[C@@H]1O (relative stereo) | 7.82
CCN(Cc1ccc(C(F)(F)F)cc1F)c1ncnc2c1ccn2C[C@@H]1CCN(CC(N)=O)C[C@H]1O (relative stereo) | 8.70

(P) NC(=O)CN1CC[C@@H](Cn2cnc3c(N(Cc4ccc(C(F)(F)F)cc4)C4CC4)ncnc32)[C@H](O)C1 (relative stereo) [P6-26″]
(Q) N#Cc1cn(CC2CCN(CC(N)=O)CC2)c2ncnc(N(Cc3ccc(C(F)(F)F)cc3)C3CC3)c12
# return whichever of P and Q has the smaller pIC50 Could you answer with the label of the item you picked?
Q

(I) NC(=O)CN1CCC(Cn2ccc3c(N4CCOCC4c4ccc(C(F)(F)F)cc4)ncnc32)CC1 (single isomer, unassigned)
(II) N#Cc1cn(CC2(O)CCN(CC(N)=O)CC2)c2ncnc(N(Cc3ccc(C(F)(F)F)cc3)C3CC3)c12
(III) NC(=O)CN1CC[C@@H](Cn2ccc3c(N(Cc4ccc(C(F)(F)F)cn4)C4CC4)ncnc32)[C@H](O)C1 (racemic) [Example P6-23]
List items by pIC50 in falling order. // respond by listing labels in the order requested
III, I, II

====

Target: RORγ ligand-binding domain (Homo sapiens, UniProt P51449)
Construct: Gal4 (galactose-responsive transcription factor); expressed in transfected cells; host or cells: HEK293, transient co-transfection
Sequence (P51449 269-508 limits assumed): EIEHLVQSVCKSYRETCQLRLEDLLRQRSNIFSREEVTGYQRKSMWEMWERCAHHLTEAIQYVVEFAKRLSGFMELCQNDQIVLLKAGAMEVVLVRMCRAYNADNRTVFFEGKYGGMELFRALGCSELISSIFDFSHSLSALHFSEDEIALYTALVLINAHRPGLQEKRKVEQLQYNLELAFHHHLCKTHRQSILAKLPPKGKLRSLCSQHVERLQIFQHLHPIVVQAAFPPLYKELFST
Assay: RORγ Reporter Assay (Gal4)
Assay type: cell-based
Settings: HEK293 cells, luciferase reporter, 24 h incubation, absolute IC50; read-out: IC50
pIC50: −log10 of the molar value.
MEASUREMENT TYPE: pIC50

A selection of reference data follows.
CC(C)N(Cc1ccc(C(F)(F)F)cc1)c1ncnc2c1ccn2C[C@@H]1CCN(CC(N)=O)C[C@H]1O (single isomer, unassigned) [Example P6-25-2] | 7.52
NC(=O)CN1CC[C@](O)(Cn2ccc3c(N(Cc4ccc(C(F)(F)F)cc4)C4CC4)ncnc32)[C@@H](O)C1 (single isomer, unassigned) [Example L5-1-1-2] | 8.70
CC(C(N)=O)N1CCC(Cn2cnc3c(N(Cc4ccc(C(F)(F)F)cc4)C4CC4)ncnc32)CC1 (stereo not drawn) | 6.64

(A) NC(=O)CN1CC[C@@H](Cn2cc(F)c3c(N(Cc4ccc(C(F)(F)F)nc4)C4CC4)ncnc32)[C@H](O)C1 (racemic)
(B) NC(=O)CN1CC[C@@H](Cn2cc(F)c3c(N(Cc4cnc(C(F)(F)F)nc4)C4CC4)ncnc32)[C@H](O)C1 (racemic)
# return whichever of A and B has the smaller pIC50 Could you answer with the label of the item you picked?
B

====

target: RORγ ligand-binding domain (Homo sapiens); construct: Gal4 (galactose-responsive transcription factor); expressed in transfected cells; host or cells: HEK293, transient co-transfection; test: RORγ Reporter Assay (Gal4); type: cell-based; settings: HEK293 cells, luciferase reporter, 24 h incubation, absolute IC50; read-out: IC50
pIC50: −log10 of the molar value.
MEASUREMENT TYPE: pIC50

A selection of reference data follows.
CCN(Cc1ccc(-n2cccn2)cc1)c1ncnc2c1ccn2C[C@@]1(O)CCN(CC(N)=O)C[C@@H]1O (relative stereo) | 7.89
N#CC1(Cn2cc(F)c3c(N(Cc4ccc(C(F)(F)F)cc4)C4CC4)ncnc32)CCN(CC(N)=O)CC1 | 7.80
NC(=O)CN1CCC(Cn2cc(F)c3c(N(Cc4ccc(C(F)(F)F)cc4)C4CC4)ncnc32)CC1 | 7.21

(I) NC(=O)CN1CC[C@@H](Cn2ccc3c(N(Cc4ccc(C(F)(F)F)cc4)C4CC4)ncnc32)[C@H](O)C1 (single isomer, unassigned) [Example P6-13-1]
(II) NC(=O)CN1CC[C@](O)(Cn2ccc3c(N(Cc4ccc(-n5cccn5)cc4)C4CC4)ncnc32)[C@@H](O)C1 (single isomer, unassigned) [Example R5-2-2]
(III) NC(=O)CN1CC[C@@H](Cn2ccc3c(N4CCOC[C@@H]4c4cccc(C(F)(F)F)c4)ncnc32)[C@H](O)C1 (single isomer, unassigned) [Example P6-03-2]
Sort ascending by pIC50. // respond by listing labels in the order requested
III, II, I

====

molecular target: RORγ ligand-binding domain (Homo sapiens, UniProt P51449); construct: Gal4 (galactose-responsive transcription factor); expressed in transfected cells; host or cells: HEK293, transient co-transfection; test: RORγ Reporter Assay (Gal4); format: cell-based; conditions: Table 5 b; bound estimated from % inhibition at 0.1 and/or 1 uM; read-out: RORγ Gal4 assay (based on % inhibition at 0.1 and/or 1 uM) IC50
pIC50: −log10 of the molar value.
molecules and their reported pIC50

NC(=O)Cc1ccc(Cn2ccc3c(N(Cc4ccc(C(F)(F)F)cc4)C4CC4)ncnc32)cc1 [Example I1, reference compound] | > 7.00

The record that follows has no pIC50 shown yet.
Dear colleague, I am looking for the recorded pIC50 of the following molecule: NC(=O)Cc1ccc(Cn2ccc3c(N4CCOC[C@@H]4c4ccc(C(F)(F)F)cn4)ncnc32)cc1 [Example 328, reference compound]
> 7.00

====

Molecular target: RORγ ligand-binding domain (Homo sapiens, UniProt P51449)
Construct: Gal4 (galactose-responsive transcription factor); expressed in transfected cells; host or cells: HEK293, transient co-transfection
Sequence (P51449 269-508 limits assumed): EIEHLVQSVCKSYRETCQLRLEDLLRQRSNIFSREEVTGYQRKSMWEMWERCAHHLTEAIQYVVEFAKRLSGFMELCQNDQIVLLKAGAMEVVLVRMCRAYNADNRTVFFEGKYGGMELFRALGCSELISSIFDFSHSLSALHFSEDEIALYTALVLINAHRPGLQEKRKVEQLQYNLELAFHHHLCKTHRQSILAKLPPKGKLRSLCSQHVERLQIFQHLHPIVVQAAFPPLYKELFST
Test: RORγ Reporter Assay (Gal4)
Type: cell-based
Settings: HEK293 cells, luciferase reporter, 24 h incubation, absolute IC50; read-out: IC50
MEASUREMENT TYPE: IC50 (nM)

(A) NC(=O)C(CO)N1CC[C@@H](Cn2ccc3c(N(Cc4ccc(C(F)(F)F)cc4)C4CC4)ncnc32)[C@H](O)C1 (mixture of isomers)
(B) CCN(Cc1ccc(C(F)(F)F)cc1)c1ncnc2c1c(F)cn2C[C@@H]1CCN(CC(N)=O)C[C@H]1O (racemic)
# return whichever of A and B has the smaller IC50 Could you answer with the label of the item you picked?
A

(A) CCN(Cc1ccc(-n2cccn2)cc1)c1ncnc2c1ccn2C[C@@H]1CCN(CC(N)=O)C[C@H]1O (relative stereo)
(B) NC(=O)CN1CC[C@@H](Cn2ccc3c(N(Cc4ccc(C(F)(F)F)cc4)C4CC4)ncnc32)[C@H](O)C1 (racemic) [Example P6-13]
(C) NC(=O)CN1CC[C@@H](Cn2ccc3c(N4CCOC[C@@H]4c4cccc(C(F)(F)F)c4)ncnc32)[C@H](O)C1 (single isomer, unassigned) [Example P6-03-1]
(D) NC(=O)CN1CC[C@@H](Cn2ccc3c(N4CCOC[C@H]4c4cccc(C(F)(F)F)c4)ncnc32)[C@H](O)C1 (single isomer, unassigned)
Sort ascending by IC50. // respond by listing labels in the order requested
B, A, C, D
(B: 0.9 nM, A: 6.5 nM, C: 13 nM, D: 47 nM)

====

system: Th17 cells; test: Th17 Assay (IL-17 levels in supernatants of differentiated Th17 cells); type: cell-based; conditions: Homo sapiens, 168 h; naive CD4+ T cells differentiated to Th17 for seven days, IL-17 by ELISA
MEASUREMENT TYPE: IC50 (nM)
Report the figure in nM without appending any unit label.

Field: IC50 (Th17 cells). Entry: NC(=O)CN1CCC(Cn2ccc3c(N4CCOCC4c4ccc(C(F)(F)F)cc4)ncnc32)CC1 (single isomer, unassigned) [Example P6-02-2]
124
